system: SARS-CoV-2-NLuc; test: microbe, parasite or virus in culture; type: cell-based, SARS Coronavirus 2; settings: Severe acute respiratory syndrome coronavirus, 48 h; read-out: MPro EC50
Collected EC50 values appear next to each entry.
Write it as a number; the unit µM goes unstated.

Solved cases (3 shown):
O=c1[nH]c2cc(-c3c(Cl)cccc3Cl)sc2c(=O)n1-c1cncc2ccccc12 : 0.275
COc1cc(-c2cc3c(s2)c(=O)n(-c2cncc(F)c2C)c(=O)n3CCC#N)c(Cl)cc1F : 0.00953
Cc1cnnc(-n2c(=O)c3sc(-c4ccccc4C#N)cc3n(CCC#N)c2=O)c1 : 0.362

Now for a further molecule.
Challenge: Query: EC50; subject: COc1cc(-c2cc3[nH]c(=O)n(-c4cncc(C5CC5)c4)c(=O)c3s2)c(Cl)cc1F
Response given: 0.0146

Entry source: patent US20240116946A1
